# System: CYP1A2 mRNA
# protocol description: in vitro
# cond: male, human, culture HH54, TCDD 5 nM, 24 h

input smiles	fold induction
Clc1cc2c(cc1Cl)Oc1cc(Cl)c(Cl)cc1O2	30

====

# Tested on: AZ-AHR cells
# protocol description: MTT cytotoxicity test in AZ-AHR cells
# Assay type: cell-based, human
# cond: 24 h incubation, six passages; read-out: AZ-AHR viability - MTT IC50
pIC50: −log10 of the molar value.

molecule	pIC50
CC(=O)N1CCN(c2ccc(OC[C@H]3CO[C@](Cn4ccnc4)(c4ccc(Cl)cc4Cl)O3)cc2)CC1 [(+)-KET, (2R,4S)-(+)-KET]	4.11

# credit: paper PMC4084896
